Data provenance: the supplement of paper PMC9112550

System: Escherichia coli TOP10
Assay: shrunken log2 fold change of peptide-encoding DNA abundance (4.5 h post-induction vs induction); higher = less antimicrobial activity (less host growth inhibition)
Conditions: time post-induction: 4.5 h; library: site-saturation at positions 5, 18, 19, 20
Reported values of shrunken log2 fold change for individual entries

>  <residue codes>
RRIRERPPRLPRPRPRPRDTPRP

>  <shrunken log2 fold change>
-0.0322

$$$$
>  <residue codes>
RRIRWRPPRLPRPRPRPFSWPRP

>  <shrunken log2 fold change>
0.0632

$$$$
>  <residue codes>
RRIRERPPRLPRPRPRPVEVPRP

>  <shrunken log2 fold change>
-0.209

$$$$
>  <residue codes>
RRIRYRPPRLPRPRPRPKRIPRP

>  <shrunken log2 fold change>
-0.0123

$$$$
>  <residue codes>
RRIRERPPRLPRPRPRPKKYPRP

>  <shrunken log2 fold change>
-0.518

$$$$
>  <residue codes>
RRIRIRPPRLPRPRPRPYGTPRP

>  <shrunken log2 fold change>
-0.894

$$$$
>  <residue codes>
RRIRKRPPRLPRPRPRPIRDPRP

>  <shrunken log2 fold change>
-0.016

$$$$
>  <residue codes>
RRIRVRPPRLPRPRPRPRCMPRP

>  <shrunken log2 fold change>
-0.23

$$$$
>  <residue codes>
RRIRERPPRLPRPRPRPMSRPRP

>  <shrunken log2 fold change>
-0.00149

$$$$
>  <residue codes>
RRIRGRPPRLPRPRPRPRGCPRP

>  <shrunken log2 fold change>
1.37

$$$$
>  <residue codes>
RRIRSRPPRLPRPRPRPYAMPRP

>  <shrunken log2 fold change>
-0.909

$$$$
>  <residue codes>
RRIRLRPPRLPRPRPRPVCWPRP

>  <shrunken log2 fold change>
0.462

$$$$
>  <residue codes>
RRIRYRPPRLPRPRPRPFLGPRP

>  <shrunken log2 fold change>
-0.0439

$$$$
>  <residue codes>
RRIRLRPPRLPRPRPRPVEKPRP

>  <shrunken log2 fold change>
0.0244

$$$$
>  <residue codes>
RRIRERPPRLPRPRPRPIVEPRP

>  <shrunken log2 fold change>
0.0517

$$$$
>  <residue codes>
RRIRQRPPRLPRPRPRPWLDPRP

>  <shrunken log2 fold change>
0.19

$$$$
>  <residue codes>
RRIRYRPPRLPRPRPRPCNYPRP

>  <shrunken log2 fold change>
-0.87

$$$$
>  <residue codes>
RRIRERPPRLPRPRPRPSTDPRP

>  <shrunken log2 fold change>
-0.332

$$$$
>  <residue codes>
RRIRARPPRLPRPRPRPHCKPRP

>  <shrunken log2 fold change>
0.0852

$$$$
>  <residue codes>
RRIRTRPPRLPRPRPRPTADPRP

>  <shrunken log2 fold change>
0.351

$$$$
>  <residue codes>
RRIRHRPPRLPRPRPRPIPTPRP

>  <shrunken log2 fold change>
-0.218

$$$$
>  <residue codes>
RRIRMRPPRLPRPRPRPQANPRP

>  <shrunken log2 fold change>
0.271

$$$$
>  <residue codes>
RRIRIRPPRLPRPRPRPFQEPRP

>  <shrunken log2 fold change>
-0.0383

$$$$
>  <residue codes>
RRIRLRPPRLPRPRPRPHCPPRP

>  <shrunken log2 fold change>
0.0666

$$$$
>  <residue codes>
RRIRMRPPRLPRPRPRPCVAPRP

>  <shrunken log2 fold change>
0.764

$$$$
>  <residue codes>
RRIRHRPPRLPRPRPRPIKAPRP

>  <shrunken log2 fold change>
-0.157

$$$$
>  <residue codes>
RRIRFRPPRLPRPRPRPVDTPRP

>  <shrunken log2 fold change>
-0.123

$$$$
>  <residue codes>
RRIRDRPPRLPRPRPRPWGKPRP

>  <shrunken log2 fold change>
-0.194

$$$$
>  <residue codes>
RRIRKRPPRLPRPRPRPDTTPRP

>  <shrunken log2 fold change>
0.0419

$$$$
>  <residue codes>
RRIRQRPPRLPRPRPRPVMWPRP

>  <shrunken log2 fold change>
0.448

$$$$
>  <residue codes>
RRIRQRPPRLPRPRPRPLCVPRP

>  <shrunken log2 fold change>
-0.183

$$$$
>  <residue codes>
RRIRDRPPRLPRPRPRPDYNPRP

>  <shrunken log2 fold change>
-0.204

$$$$

###

Test system: Escherichia coli TOP10;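 also: peptides expressed intracellularly from a pBAD plasmid library in pooled LB shake-flask culture, induced with 0.3% L-arabinose, DNA abundance read by NGS, three biological replicates, DESeq2 with apeglm shrinkage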
Assay: shrunken log2 fold change of peptide-encoding DNA abundance (4.5 h post-induction vs induction); higher = less antimicrobial activity (less host growth inhibition)
Details: time post-induction: 4.5 h; library: site-saturation at positions 5, 18, 19, 20
Class (required): determined from shrunken log2 fold change; valid ranges are low class (below -0.2), middle class (-0.2 to below 0.08), high class (0.08 or more)

>  <residue codes>
RRIRIRPPRLPRPRPRPYEQPRP

>  <category label>
low class

$$$$
>  <residue codes>
RRIRVRPPRLPRPRPRPYERPRP

>  <category label>
middle class

$$$$
>  <residue codes>
RRIRFRPPRLPRPRPRPLVNPRP

>  <category label>
middle class

$$$$
>  <residue codes>
RRIRTRPPRLPRPRPRPESEPRP

>  <category label>
middle class

$$$$
>  <residue codes>
RRIRGRPPRLPRPRPRPNPTPRP

>  <category label>
high class

$$$$
>  <residue codes>
RRIRFRPPRLPRPRPRPVLFPRP

>  <category label>
middle class

$$$$
>  <residue codes>
RRIRLRPPRLPRPRPRPEYRPRP

>  <category label>
middle class

$$$$
>  <residue codes>
RRIRLRPPRLPRPRPRPPREPRP

>  <category label>
high class

$$$$
>  <residue codes>
RRIRMRPPRLPRPRPRPEMFPRP

>  <category label>
high class

$$$$
>  <residue codes>
RRIRCRPPRLPRPRPRPIFLPRP

>  <category label>
low class

$$$$
>  <residue codes>
RRIRRRPPRLPRPRPRPAPDPRP

>  <category label>
high class

$$$$
>  <residue codes>
RRIRVRPPRLPRPRPRPNPAPRP

>  <category label>
high class

$$$$
>  <residue codes>
RRIRQRPPRLPRPRPRPYSEPRP

>  <category label>
middle class

$$$$
>  <residue codes>
RRIRQRPPRLPRPRPRPFGVPRP

>  <category label>
high class

$$$$
>  <residue codes>
RRIRMRPPRLPRPRPRPHAWPRP

>  <category label>
high class

$$$$
>  <residue codes>
RRIRRRPPRLPRPRPRPSSLPRP

>  <category label>
middle class

$$$$
>  <residue codes>
RRIRNRPPRLPRPRPRPLCGPRP

>  <category label>
middle class

$$$$
>  <residue codes>
RRIRQRPPRLPRPRPRPYNNPRP

>  <category label>
low class

$$$$
>  <residue codes>
RRIRLRPPRLPRPRPRPVARPRP

>  <category label>
high class

$$$$
>  <residue codes>
RRIRARPPRLPRPRPRPTFPPRP

>  <category label>
high class

$$$$
>  <residue codes>
RRIRIRPPRLPRPRPRPMKNPRP

>  <category label>
low class

$$$$
>  <residue codes>
RRIRFRPPRLPRPRPRPAFNPRP

>  <category label>
low class

$$$$
>  <residue codes>
RRIRARPPRLPRPRPRPPWFPRP

>  <category label>
high class

$$$$
>  <residue codes>
RRIRKRPPRLPRPRPRPRSMPRP

>  <category label>
middle class

$$$$
>  <residue codes>
RRIRDRPPRLPRPRPRPVNFPRP

>  <category label>
middle class

$$$$
>  <residue codes>
RRIRARPPRLPRPRPRPISVPRP

>  <category label>
middle class

$$$$
>  <residue codes>
RRIRTRPPRLPRPRPRPSVWPRP

>  <category label>
high class

$$$$
>  <residue codes>
RRIRRRPPRLPRPRPRPVEKPRP

>  <category label>
middle class

$$$$
>  <residue codes>
RRIRSRPPRLPRPRPRPVHYPRP

>  <category label>
low class

$$$$
>  <residue codes>
RRIRARPPRLPRPRPRPYKHPRP

>  <category label>
low class

$$$$
>  <residue codes>
RRIRPRPPRLPRPRPRPRKPPRP

>  <category label>
middle class

$$$$
>  <residue codes>
RRIRNRPPRLPRPRPRPPYDPRP

>  <category label>
low class

$$$$
